- System: MDA-N
- experiment: NCI tumour cell line growth inhibition, 48 h
measured.quantity: TGI

Provide TGI values for the following items, in order.
1. Cc1cc(=O)n2nc(CSc3n[nH]c(=S)s3)sc2n1
2. C(/C=C/Nc1ccc(-c2ccccc2)cc1)=Nc1ccc(-c2ccccc2)cc1
3. O=C1NC(N2CCCCC2)=N/C1=C\c1ccccc1
4. Brc1ccc(C2CC3(c4ccccc4)ON=C(c4ccccc4)N3c3ccccc3S2)cc1 (stereo not given)
5. COC(=O)[C@]1(Cc2ccc3ccccc3c2)CCCCCCN1C(=O)c1ccccc1
6. CC1(C)CC[C@]2(C(=O)O)CC[C@]3(C)C(=CC[C@@H]4[C@@]5(C)CC[C@H](OC6OC(CO)C(O)C(O)C6O)C(C)(C)[C@@H]5CC[C@]43C)[C@@H]2C1 (stereo not given in full)

## Result
["> 100 µM", "> 100 µM", "> 100 µM", "> 100 µM", "> 53.5 µM", "3.54 µM"]

Quick one: give me TGI for each item below, same order please.
1. C(#C[C@@]12CCC[C@@H]1N(Cc1ccccc1)CO2)c1ccc2c(c1)OCO2
2. O=C1CN(c2ccccc2)C(=O)CN1CCN1CC(=O)N(c2ccccc2)CC1=O
3. CO/N=C(\C(=O)[N-][n+]1cnn(CC(=O)O)c1)c1csc(N)n1
4. COc1ccc(S(=O)(=O)Nc2ccc(-c3csc(N4C(=O)/C(=C/c5cccs5)N=C4c4ccccc4)n3)cc2)cc1Cl

## Result
> 100 µM
> 100 µM
> 10 µM
> 100 µM

###

- Tested on: MCF7 breast
- experiment: NCI tumour cell line growth inhibition, 48 h
Kindly state TGI for each of the entries shown.
Give bare numbers, in µM.

I would be grateful if you could provide TGI for each of the following entries.
1. O=C1c2cc([N+](=O)[O-])sc2C(=O)c2cc([N+](=O)[O-])sc21
2. CNC(=O)OCC1=C(COC(=O)NC)C(C)N(c2ccccc2)C1 (stereo not given)

## Result
1: 9.92; 2: 58.3

###

Please respond with reported TGI for every item in the list.
- Test system: HT29 colon
- experiment: NCI tumour cell line growth inhibition, 48 h

Solved cases (8 shown):
# compound, assayed.target, TGI
measured = [
    ("Nc1nc(Cc2ccccc2)nc(Cc2ccccc2)c1-c1ccccc1", "HT29 colon", "> 100 µM"),
    ("CCOC(=O)C(=O)C(/C(=N/N(C)C)C(=O)Nc1ccc(C)cc1C)c1nc2ccccc2[nH]c1=O (centres undefined)", "HT29 colon", "> 100 µM"),
    ("C=C(C)[C@@H]1CC[C@]2(CN)CC[C@]3(C)[C@H](CC[C@@H]4[C@@]5(C)CCC(N)[C@@](C)(CO)[C@@H]5CC[C@]43C)[C@@H]12 (some centres undefined)", "HT29 colon", "3.12 µM"),
    ("CCCC(=O)Nc1c(I)cc(I)c(CC(CC)C(=O)O)c1I (centres undefined)", "HT29 colon", "> 100 µM"),
    ("Nc1nc(CC2(O)CCCCC2)cc(-c2ccccc2)n1", "HT29 colon", "> 49.2 µM"),
    ("O=C1/C(=C\\c2cccc(Oc3ccccc3)c2)SC(c2ccccc2)N1c1cccc(Cl)c1 (centres undefined)", "HT29 colon", "> 100 µM"),
    ("OCCCCCNc1ccnc2cc(Cl)ccc12", "HT29 colon", "> 100 µM"),
    ("C[C@@]1(O)CCC[C@H]1n1c(=O)c(C(F)F)cc2cnc(NC3CCN(S(C)(=O)=O)CC3)nc21", "HT29 colon", "> 100 µM"),
]

Continue with the next compound.
## Task Identify measured TGI associated with C[C@H](CO)C1=CC(C#C[Si](C)(C)C)N(C(=O)Oc2ccccc2)c2ccccc21 (some centres undefined)
## Result 20.5 µM
